Listed below: Activity values for each entry.
species on record: Rattus norvegicus; assay: Inhibition of rat recombinant geranylgeranyltransferase type I expressed in Escherichia coli assessed as residual enzyme activity for geranylgeranylation of K-Ras4B at 50 uM incubated for 30 mins in presence of [3H]GGPP by scintillation counting assay relative to control
Provide the reading as a plain figure in %.

Please review the entries below; each comes with its answer.
CC[C@@H]1[C@@H](SCCC(=O)OC(C)(C)C)[C@@H](C(=O)O)[C@H](c2ccc(Cl)c(Cl)c2)N1S(=O)(=O)c1ccc(C)cc1 ... 27.2
COc1ccc(S[C@@H]2C[C@@H](c3cccc(OC)c3)N(S(=O)(=O)c3ccc(C)cc3)C[C@H]2C(=O)O)cc1 ... 101
Cc1ccc([C@@H]2C[C@@H](SC3CCCC3)[C@H](C(=O)O)CN2S(C)(=O)=O)cc1 ... 110

Exercise: Assign Activity to the following record: CCS[C@@H]1C[C@@H](c2ccccc2F)N(S(=O)(=O)c2ccc(C)cc2)C[C@H]1C(=O)O
Key: 89.4

Exercise: Assign Activity to the following record: COc1cccc([C@@H]2CC=C(C(=O)O)[C@H](c3ccc(Cl)cc3)N2S(=O)(=O)c2ccc(C)cc2)c1
Key: 54.1

Exercise: Assign Activity to the following record: C=CCS[C@@H]1C[C@@H](c2ccc(C)cc2)N(S(C)(=O)=O)C[C@H]1C(=O)O
Key: 91.4

Exercise: Assign Activity to the following record: COc1ccc(S[C@@H]2C[C@@H](c3cccc(Br)c3)N(S(=O)(=O)c3ccc(C)cc3)C[C@H]2C(=O)O)cc1
Key: 81.4

Exercise: Assign Activity to the following record: CCCCCS[C@@H]1C[C@@H](c2ccc3c(c2)OCO3)N(S(=O)(=O)c2ccc(C)cc2)C[C@H]1C(=O)O
Key: 66

Source listed as ChEMBL document CHEMBL4421722.
